molecular target: KRAS-G12D protein (Homo sapiens, UniProt P01116, G12D); assay: SOS-mediated nucleotide exchange assay (BODIPY-GDP / Tb-streptavidin TR-FRET); assay type: biochemical
Sequence (P01116 1-188 isoform P01116-2 G12D): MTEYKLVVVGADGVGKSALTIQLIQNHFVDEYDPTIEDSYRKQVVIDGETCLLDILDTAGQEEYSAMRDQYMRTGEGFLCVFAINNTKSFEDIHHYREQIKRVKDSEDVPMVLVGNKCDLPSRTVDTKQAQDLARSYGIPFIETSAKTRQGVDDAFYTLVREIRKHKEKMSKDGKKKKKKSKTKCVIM
pEC50: −log10 of the molar value. *1 amine or outer side, *2 acyl side, *3 side chain or, on linkers, in order; H or OH if unused. Where a SMILES comes first, the peptide text is derived from it. [ ]: non-standard residue; d: D form. Ala(pyrimidin-5-yl) = N[C@@H](Cc1cncnc1)C(=O)O; X37 = O=C([C@H](Cc1cnc(F)cc1F)N[*:1])[*:2]; X46 = O=C([C@H](Cc1cccnc1F)N[*:1])[*:2]; Phe(4-F) = N[C@@H](Cc1ccc(F)cc1)C(=O)O; NHCH2CH2SCH2CO = O=C(CSCCN[*:1])[*:2]; X1 = O=C(C12CC(CN[*:1])(C1)C2)[*:2]; Ala(cPr) = N[C@@H](CC1CC1)C(=O)O; NMeF = CN[C@@H](Cc1ccccc1)C(=O)O; PhLac = O=C(O)[C@@H](O)Cc1ccccc1; 4Pal = N[C@@H](Cc1ccncc1)C(=O)O; hLeu = CC(C)CC[C@H](N)C(=O)O; NMeA = CN[C@@H](C)C(=O)O; Nle = CCCC[C@H](N)C(=O)O; Nva = CCC[C@H](N)C(=O)O
We use 6 as the dividing line for pEC50: on or above the line is MET, below is NOT MET.

Please review the following examples before continuing.
{"columns": ["COMPOUND", "STUDY_TARGET", "ASSIGNED_CATEGORY"],
 "data": [
  ["CC(C)CC[C@@H]1NC(=O)[C@H](Cc2cccnc2F)NC(=O)[C@H](CC2CC2)NC(=O)[C@H](Cc2cncnc2)NC(=O)[C@H](C)N(C)C(=O)[C@H](Cc2ccccc2)OC(=O)C23CC(CNC(=O)[C@H](Cc4ccccc4)N(C)C1=O)(C2)C3 [compound 215] (cyclo([Ala(cPr)][X46][hLeu][NMeF][X1][PhLac][NMeA][Ala(pyrimidin-5-yl)]))", "KRAS-G12D protein (Homo sapiens, UniProt P01116, G12D)", "MET"],
  ["CCC[C@@H]1NC(=O)[C@H](Cc2ccc(O)cc2)NC(=O)[C@H](CC(C)C)NC(=O)[C@H](Cc2ccc(O)cc2)NC(=O)[C@H](CCCNC(=N)N)NC(=O)[C@H](Cc2ccccc2)NC(=O)CSC[C@H](C(N)=O)NC(=O)[C@H](Cc2ccccc2)N(C)C1=O [compound 21, cyclo(F-R-Y-L-Y-Nva-NMeF-dCl-ClAc)]", "KRAS-G12D protein (Homo sapiens, UniProt P01116, G12D)", "NOT MET"],
  ["CC(C)CC[C@@H]1NC(=O)[C@H](Cc2cnc(F)cc2F)NC(=O)[C@H](CC2CC2)NC(=O)[C@H](Cc2cncnc2)NC(=O)[C@H](C)N(C)C(=O)[C@H](Cc2ccccc2)OC(=O)C23CC(CNC(=O)[C@H](Cc4ccccc4)N(C)C1=O)(C2)C3 [compound 294] (cyclo([Ala(cPr)][X37][hLeu][NMeF][X1][PhLac][NMeA][Ala(pyrimidin-5-yl)]))", "KRAS-G12D protein (Homo sapiens, UniProt P01116, G12D)", "MET"]
]}

Lookup: For this compound, is measured pEC50 6 or higher? CCCC[C@@H]1NC(=O)[C@H](Cc2ccc(O)cc2)NC(=O)[C@H](CCC)NC(=O)[C@H](Cc2ccc(O)cc2)NC(=O)[C@H](CCCNC(=N)N)NC(=O)[C@H](Cc2ccccc2)NC(=O)CSCCNC(=O)[C@H](Cc2ccccc2)N(C)C1=O [compound 76] (cyclo(FRY[Nva]Y[Nle][NMeF][NHCH2CH2SCH2CO]))
Found: NOT MET

Lookup: Given the entry CCC[C@@H]1NC(=O)[C@H](Cc2ccc(OC)cc2)NC(=O)[C@H](CC(C)C)NC(=O)[C@H](Cc2ccncc2)NC(=O)[C@H](CCCNC(=N)N)NC(=O)[C@H](Cc2ccc(F)cc2)NC(=O)CSCCNC(=O)[C@H](Cc2ccccc2)N(C)C1=O [compound 88] (cyclo([4Pal]LY(Me)[Nva][NMeF][NHCH2CH2SCH2CO][Phe(4-F)]R)) , answer whether its pEC50 meets or surpasses 6.
Found: NOT MET
